For each entry below, report its inhibition at 1.1 µM value.
# targetUnderTest: Human PI3K beta (Homo sapiens, UniProt P42338)
# Construct: His (N); host or cells: SF9 insect cells (baculovirus)
# Sequence (P42338 whole entry): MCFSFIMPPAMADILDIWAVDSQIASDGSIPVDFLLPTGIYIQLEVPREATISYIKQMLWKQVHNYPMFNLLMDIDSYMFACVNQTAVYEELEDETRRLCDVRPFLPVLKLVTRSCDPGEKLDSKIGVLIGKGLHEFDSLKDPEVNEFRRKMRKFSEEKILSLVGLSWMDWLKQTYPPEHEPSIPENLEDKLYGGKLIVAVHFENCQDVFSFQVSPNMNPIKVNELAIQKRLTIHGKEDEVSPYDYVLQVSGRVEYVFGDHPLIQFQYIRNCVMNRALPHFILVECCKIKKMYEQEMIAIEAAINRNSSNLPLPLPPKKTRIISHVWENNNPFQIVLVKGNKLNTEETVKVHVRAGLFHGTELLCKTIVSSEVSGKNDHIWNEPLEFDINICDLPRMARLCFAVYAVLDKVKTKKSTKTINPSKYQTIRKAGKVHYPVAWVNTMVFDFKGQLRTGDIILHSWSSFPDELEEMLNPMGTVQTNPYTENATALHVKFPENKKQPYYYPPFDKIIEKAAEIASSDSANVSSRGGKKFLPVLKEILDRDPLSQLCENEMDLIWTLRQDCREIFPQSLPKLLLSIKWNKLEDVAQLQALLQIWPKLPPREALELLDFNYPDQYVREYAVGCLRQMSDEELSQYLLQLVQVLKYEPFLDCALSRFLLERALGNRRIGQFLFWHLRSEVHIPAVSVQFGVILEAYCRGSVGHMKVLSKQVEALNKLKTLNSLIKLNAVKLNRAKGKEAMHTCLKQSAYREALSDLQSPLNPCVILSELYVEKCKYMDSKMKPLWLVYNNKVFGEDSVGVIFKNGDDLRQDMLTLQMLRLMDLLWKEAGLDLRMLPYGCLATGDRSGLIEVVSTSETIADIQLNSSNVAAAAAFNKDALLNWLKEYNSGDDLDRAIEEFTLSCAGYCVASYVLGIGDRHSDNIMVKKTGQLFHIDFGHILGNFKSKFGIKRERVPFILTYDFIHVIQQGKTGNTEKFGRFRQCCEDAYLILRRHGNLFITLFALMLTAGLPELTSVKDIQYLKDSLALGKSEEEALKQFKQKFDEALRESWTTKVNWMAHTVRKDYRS
# Sequence (P27986 whole entry partner): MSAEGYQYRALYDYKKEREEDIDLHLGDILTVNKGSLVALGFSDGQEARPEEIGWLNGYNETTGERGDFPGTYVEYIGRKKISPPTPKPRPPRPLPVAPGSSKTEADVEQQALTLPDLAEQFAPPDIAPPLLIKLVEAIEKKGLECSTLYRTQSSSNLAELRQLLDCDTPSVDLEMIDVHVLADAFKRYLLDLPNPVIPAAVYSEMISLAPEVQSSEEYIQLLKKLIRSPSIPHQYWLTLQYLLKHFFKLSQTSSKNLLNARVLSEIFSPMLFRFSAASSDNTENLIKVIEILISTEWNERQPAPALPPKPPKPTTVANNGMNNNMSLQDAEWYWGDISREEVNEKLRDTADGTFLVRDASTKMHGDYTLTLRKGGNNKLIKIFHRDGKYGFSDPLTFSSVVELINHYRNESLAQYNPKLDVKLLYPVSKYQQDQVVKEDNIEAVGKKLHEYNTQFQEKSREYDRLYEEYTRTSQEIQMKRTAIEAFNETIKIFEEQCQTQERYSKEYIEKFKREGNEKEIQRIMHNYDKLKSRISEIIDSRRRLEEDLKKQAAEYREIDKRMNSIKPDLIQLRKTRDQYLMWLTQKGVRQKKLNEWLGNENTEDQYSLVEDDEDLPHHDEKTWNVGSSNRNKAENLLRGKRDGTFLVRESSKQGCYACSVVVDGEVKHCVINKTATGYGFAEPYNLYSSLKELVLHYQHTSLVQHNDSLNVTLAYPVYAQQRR
# experimentalDetails: Human PI3K beta enzyme assay (HTRF)
# Format: biochemical
# condition: at a 1.1 μM concentration; read-out: PI3β Percent Inhibition
One number for each entry, in %.

Solved cases (2 shown):
[[record]]
givensmiles = "N#Cc1ccc(Cc2nc(N3CCOCC3)sc2C(=O)O)cc1"
recordedmeasurement = 80

[[record]]
givensmiles = "N#Cc1c(N2CCOCC2)sc(C(=O)O)c1Cc1ccc(Br)cc1"
recordedmeasurement = 103


Consider now this further molecule.
Query string: Data request, read-out inhibition at 1.1 µM, for O=C(O)c1sc(N2CCOCC2)nc1Cc1ccc(Cl)c(F)c1
Result string: 104

---

# targetUnderTest: Human PI3K delta (Homo sapiens)
# Construct: His (N); host or cells: SF9 insect cells (baculovirus)
# experimentalDetails: Human PI3K delta enzyme assay (HTRF)
# Type: biochemical
# condition: concentration not given; b1389 states 1.0 μM for PI3K δ and γ; read-out: p110 delta Percent Inhibition
measuredProperty: inhibition at 1 µM (%)
Numbers only, in %.

Solved cases (7 shown):
[[record]]
molecule = "CC(=O)Nc1cc(-c2cc(C(NCCO)c3ccc(Cl)cc3)c(-c3nnc[nH]3)s2)ccn1 (centres unmarked)"
measuredproperty = "inhibition at 1 µM"
recordedmeasurement = 93

[[record]]
molecule = "CC(=O)Nc1cc(-c2nc(C(O)c3ccc(Cl)cc3)c(-c3nnc[nH]3)s2)ccn1 (centres unmarked)"
measuredproperty = "inhibition at 1 µM"
recordedmeasurement = 96

[[record]]
molecule = "CCN(CC)C(c1ccc(Cl)cc1)c1cc(-c2ccnc(Cl)c2)sc1-c1nnc[nH]1 (centres unmarked)"
measuredproperty = "inhibition at 1 µM"
recordedmeasurement = 45

[[record]]
molecule = "OC(c1cnc2ccccc2n1)c1cc(-c2ccncc2)sc1-c1nnc[nH]1 (centres unmarked)"
measuredproperty = "inhibition at 1 µM"
recordedmeasurement = 84

[[record]]
molecule = "COc1cnc(Cl)cc1-c1cc(C(O)c2ccc(Cl)cc2)c(-c2nnc[nH]2)s1 (centres unmarked)"
measuredproperty = "inhibition at 1 µM"
recordedmeasurement = 19

[[record]]
molecule = "O=C(O)c1sc(N2CCOCC2)nc1Cc1ccc2ccncc2c1"
measuredproperty = "inhibition at 1 µM"
recordedmeasurement = 102

[[record]]
molecule = "Clc1ccc(Cc2nc(N3CCOCC3)sc2Cc2nnn[nH]2)cc1Cl"
measuredproperty = "inhibition at 1 µM"
recordedmeasurement = 41


Consider now this further molecule.
Query string: Data request, read-out inhibition at 1 µM, for CC(=O)Nc1cc(-c2cc(C(c3ccc(Cl)cc3)N3CC(O)C3)c(-c3nnc[nH]3)s2)ccn1 (centres unmarked)
Result string: 110

---

# targetUnderTest: Human PI3K delta (Homo sapiens, UniProt O00329)
# Construct: His (N); host or cells: SF9 insect cells (baculovirus)
# Sequence (O00329 whole entry, one chain of several): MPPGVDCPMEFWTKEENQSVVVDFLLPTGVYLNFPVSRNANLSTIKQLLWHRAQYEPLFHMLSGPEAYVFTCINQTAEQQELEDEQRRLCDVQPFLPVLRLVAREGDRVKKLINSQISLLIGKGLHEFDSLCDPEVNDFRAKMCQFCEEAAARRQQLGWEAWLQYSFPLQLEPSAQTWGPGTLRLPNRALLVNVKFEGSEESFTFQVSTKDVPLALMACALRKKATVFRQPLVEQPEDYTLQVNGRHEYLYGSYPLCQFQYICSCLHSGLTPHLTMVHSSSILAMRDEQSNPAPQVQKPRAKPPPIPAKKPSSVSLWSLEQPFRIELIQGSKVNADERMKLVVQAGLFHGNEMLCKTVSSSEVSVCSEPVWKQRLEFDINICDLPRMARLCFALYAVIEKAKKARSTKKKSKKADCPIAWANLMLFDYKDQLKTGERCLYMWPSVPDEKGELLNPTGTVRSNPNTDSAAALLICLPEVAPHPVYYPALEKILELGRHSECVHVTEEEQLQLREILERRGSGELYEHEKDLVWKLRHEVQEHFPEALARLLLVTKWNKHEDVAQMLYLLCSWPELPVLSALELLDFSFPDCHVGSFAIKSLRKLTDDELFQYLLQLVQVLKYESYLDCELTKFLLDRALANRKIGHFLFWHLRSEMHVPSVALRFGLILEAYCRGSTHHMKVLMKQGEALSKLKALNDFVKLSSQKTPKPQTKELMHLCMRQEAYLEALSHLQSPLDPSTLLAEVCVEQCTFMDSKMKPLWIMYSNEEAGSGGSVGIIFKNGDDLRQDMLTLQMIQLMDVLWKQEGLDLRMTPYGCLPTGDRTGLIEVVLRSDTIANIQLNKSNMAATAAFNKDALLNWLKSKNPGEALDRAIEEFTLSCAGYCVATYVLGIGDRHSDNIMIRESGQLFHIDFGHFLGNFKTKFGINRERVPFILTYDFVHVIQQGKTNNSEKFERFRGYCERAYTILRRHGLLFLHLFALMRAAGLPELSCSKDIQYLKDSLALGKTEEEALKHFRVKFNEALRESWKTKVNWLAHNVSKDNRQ
# experimentalDetails: Human PI3K delta enzyme assay (HTRF)
# Assay type: biochemical
# condition: concentration not given; b1389 states 1.0 μM for PI3K δ and γ; read-out: p110 delta Percent Inhibition
Use 80% as the dividing line for inhibition at 1 µM, with the line itself on the 1 side and lower values as 0.

# example entries with known answers
[[record]]
compound = "OC(c1ccccc1Cl)c1cc(-c2ccncc2)sc1-c1nnc[nH]1 (centres unmarked)"
labelclass = 0

[[record]]
compound = "Oc1cc(-c2sc(-c3ccncc3)nc2Cc2ccc(Cl)cc2)[nH]n1"
labelclass = 1

[[record]]
compound = "Cc1nc2cc(Cc3nc(N4CCOCC4)sc3C(=O)O)ccc2s1"
labelclass = 0


Query string: hey, is inhibition at 1 µM for this one >= 80%? Cc1ccc(C(O)c2cc(-c3ccncc3)sc2-c2nnc[nH]2)cc1C (centres unmarked)
Result string: 0

Query string: hey, is inhibition at 1 µM for this one >= 80%? CC(=O)Nc1cc(-c2cc(C(c3ccc(Cl)cc3)N3CC(N)C3)c(-c3nnc[nH]3)s2)ccn1 (centres unmarked)
Result string: 1

Query string: hey, is inhibition at 1 µM for this one >= 80%? COC(=O)Nc1cc(-c2cc(C(c3ccc(Cl)cc3)N3CCNCC3)c(-c3nnc[nH]3)s2)ccn1 (centres unmarked)
Result string: 1

Query string: hey, is inhibition at 1 µM for this one >= 80%? CN[C@H]1CCN(C(c2ccc(Cl)cc2)c2cc(-c3ccnc(NC(C)=O)c3)sc2-c2nnc[nH]2)C1 (some centres unmarked)
Result string: 1

Query string: hey, is inhibition at 1 µM for this one >= 80%? N#Cc1c(N2CCOCC2)sc(C(N)=O)c1C(F)(F)c1ccc2ccccc2c1
Result string: 0

Query string: hey, is inhibition at 1 µM for this one >= 80%? COc1ccc(C(O)c2cc(-c3ccncc3)sc2-c2nnc[nH]2)cc1Cl (centres unmarked)
Result string: 1

Query string: hey, is inhibition at 1 µM for this one >= 80%? O=C(O)c1sc(N2CCOCC2)nc1Cc1ccc2ccccc2c1F
Result string: 1

Query string: hey, is inhibition at 1 µM for this one >= 80%? CC(=O)Nc1cc(-c2cc(C(c3ccc(Cl)cc3)n3cccn3)c(-c3nnc[nH]3)s2)ccn1 (centres unmarked)
Result string: 1

Query string: hey, is inhibition at 1 µM for this one >= 80%? CC(=O)Nc1cc(-c2cc(C(c3ccc(Cl)cc3)N(C)C3CNC3)c(-c3nnc[nH]3)s2)ccn1 (centres unmarked)
Result string: 1
